target: Extracellular calcium-sensing receptor (Homo sapiens, UniProt P41180); assay: Inhibition of intracellular calcium release in human TT cells containing calcium-sensing receptor by FLIPR
Sequence (P41180 whole entry): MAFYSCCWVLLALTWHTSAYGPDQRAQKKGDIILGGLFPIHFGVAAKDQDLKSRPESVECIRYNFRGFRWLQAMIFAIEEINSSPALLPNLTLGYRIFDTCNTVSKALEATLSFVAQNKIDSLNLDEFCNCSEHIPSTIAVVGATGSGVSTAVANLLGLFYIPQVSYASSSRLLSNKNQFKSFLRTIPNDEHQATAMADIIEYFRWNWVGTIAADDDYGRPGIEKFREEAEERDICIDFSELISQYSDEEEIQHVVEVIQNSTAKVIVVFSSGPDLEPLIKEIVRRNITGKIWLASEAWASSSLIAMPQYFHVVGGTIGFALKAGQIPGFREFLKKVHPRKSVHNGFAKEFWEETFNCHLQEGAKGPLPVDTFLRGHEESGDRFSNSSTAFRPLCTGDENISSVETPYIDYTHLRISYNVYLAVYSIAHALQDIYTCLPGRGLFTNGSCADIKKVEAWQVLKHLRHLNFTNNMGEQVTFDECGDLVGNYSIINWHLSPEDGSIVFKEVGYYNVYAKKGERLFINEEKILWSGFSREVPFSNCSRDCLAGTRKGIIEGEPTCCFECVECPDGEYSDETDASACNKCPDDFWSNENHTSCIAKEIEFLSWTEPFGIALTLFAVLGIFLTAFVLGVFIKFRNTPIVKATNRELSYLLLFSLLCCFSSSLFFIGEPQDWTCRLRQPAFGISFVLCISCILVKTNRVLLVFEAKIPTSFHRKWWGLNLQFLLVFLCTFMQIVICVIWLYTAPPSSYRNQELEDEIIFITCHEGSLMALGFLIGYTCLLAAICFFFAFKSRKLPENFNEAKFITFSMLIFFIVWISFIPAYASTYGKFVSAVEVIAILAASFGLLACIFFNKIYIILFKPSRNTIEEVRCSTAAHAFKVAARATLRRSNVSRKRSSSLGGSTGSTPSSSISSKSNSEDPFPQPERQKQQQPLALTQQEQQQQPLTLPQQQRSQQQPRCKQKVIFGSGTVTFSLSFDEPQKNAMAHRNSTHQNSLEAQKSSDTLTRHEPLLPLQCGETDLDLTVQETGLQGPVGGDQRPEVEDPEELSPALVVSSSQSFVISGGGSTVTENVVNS
Provide the recorded IC50 for the entries that follow.
Give bare numbers, in nM.

compound	observed.value
CN(C[C@@H](O)COc1cccc(Cl)c1C#N)C(C)(C)Cc1ccc2ccccc2c1	270
CC(C)(Cc1ccc2ccccc2c1)NC[C@@H](O)[C@H]1CCCN1Cc1cccc(Br)c1	1570

Below are 2 compounds. Give each one its IC50.
1. CC(C)(Cc1nc2ccccc2[nH]1)NC[C@@H](O)[C@H]1CCCN1Cc1cccc(C#N)c1
2. CC(C)(Cc1ccc2ccccc2c1)NC[C@@H](O)COc1cccc(Cl)c1C#N

Response given:
2840
50
